experimental target: Rho-associated protein kinase 2 (Homo sapiens)
assay explanation: inhibitors of human ROCK2 kinase, primary screen, biochemical, high-throughput, luminescence (AID 604);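 also: plate controls were DMSO wells for no effect and Y-27632 control wells after no-enzyme background subtraction for full effect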
test context: purified ROCK2, Kinase-Glo ATP depletion luminescence; at 6 µM; hits give high values
The whole screen tested about 60,000 compounds, of which about 210 (0.35%) were called active. Shown is part of a subset that was picked to be rich in actives.
measured parameter: inhibition (%)
Give bare numbers, in %.

Given the entry "CCCn1cc(SCC(N)=O)c2ccccc21" , report its measured inhibition.
4.9

Given the entry "CCCCC(=O)N1CC2(C)CN(C(=O)CCCC)CC(C)(C1)C2=O" , report its measured inhibition.
3.9

Quick one: give me inhibition for each item below, same order please.
1. CCCCN(C)C(=O)c1ccc2c(c1)N(CC)C(=O)c1ccccc1S2(=O)=O
2. O=C(C1=C(O)C(=O)N(c2ncccn2)C1c1cccs1)c1ccco1 (stereo unspecified)
3. Cc1ccccc1CSCC(=O)NC(=O)NC(C)(C)C
4. O=C(CC1N=C2c3ccccc3N=C(SCc3ccccc3Cl)N2C1=O)NCc1ccco1 (stereo unspecified)

-4.8
-11.1
4.6
2.8
